systemUnderTest: Nuclear receptor subfamily 1 group I member 2 (Homo sapiens) (UniProt O75469)
Sequence (O75469 whole entry, looked up): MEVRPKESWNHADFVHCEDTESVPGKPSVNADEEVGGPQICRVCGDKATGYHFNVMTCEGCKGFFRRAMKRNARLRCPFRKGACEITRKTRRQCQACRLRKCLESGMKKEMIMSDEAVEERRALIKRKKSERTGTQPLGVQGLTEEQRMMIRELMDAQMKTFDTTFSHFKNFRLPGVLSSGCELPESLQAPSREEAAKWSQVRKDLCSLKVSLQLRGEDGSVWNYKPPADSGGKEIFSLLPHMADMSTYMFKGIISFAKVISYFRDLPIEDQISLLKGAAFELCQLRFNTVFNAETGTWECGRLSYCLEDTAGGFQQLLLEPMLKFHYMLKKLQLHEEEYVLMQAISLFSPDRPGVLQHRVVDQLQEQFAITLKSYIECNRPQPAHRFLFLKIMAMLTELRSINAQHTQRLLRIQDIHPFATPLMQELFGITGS
testDescription: ATG_PXR_TRANS: Attagene TRANS-FACTORIAL HepG2 Assay for human Pregnane X Receptor (PXR) (AID 2283008)
Inconclusive results are not listed. The source made the active and inactive calls. Rule for the calls: active = hit-call score of the fitted dose curve at least 0.9, where 1 is the maximum; inconclusive = response in the unintended direction; inactive = score below 0.9.
The categories you may choose from are TRUE for active, FALSE for inactive

Below are worked cases with known answers.
compound: CC(=O)c1ccc(O)cc1
systemUnderTest: Nuclear receptor subfamily 1 group I member 2 (Homo sapiens) (UniProt O75469)
qualitativeLabel: FALSE
--
compound: CCc1cccc(O)c1
systemUnderTest: Nuclear receptor subfamily 1 group I member 2 (Homo sapiens) (UniProt O75469)
qualitativeLabel: FALSE
--
compound: CCCCC/C=C\C=C\C(=O)OCC
systemUnderTest: Nuclear receptor subfamily 1 group I member 2 (Homo sapiens) (UniProt O75469)
qualitativeLabel: TRUE
--
compound: Nc1cc([N+](=O)[O-])ccc1C(=O)O
systemUnderTest: Nuclear receptor subfamily 1 group I member 2 (Homo sapiens) (UniProt O75469)
qualitativeLabel: FALSE
--
compound: C=C(C)C(=O)OCCOCCOC(=O)C(=C)C
systemUnderTest: Nuclear receptor subfamily 1 group I member 2 (Homo sapiens) (UniProt O75469)
qualitativeLabel: FALSE
--
compound: CCCCCCCCCCCCCCCCCC(=O)OCCCCCCCCCCCCCC(C)C
systemUnderTest: Nuclear receptor subfamily 1 group I member 2 (Homo sapiens) (UniProt O75469)
qualitativeLabel: FALSE
--
compound: S=c1[nH][nH]c(=S)s1
systemUnderTest: Nuclear receptor subfamily 1 group I member 2 (Homo sapiens) (UniProt O75469)
qualitativeLabel: FALSE
--
compound: C=COCC1CCC(COC=C)CC1 (stereo unspecified)
systemUnderTest: Nuclear receptor subfamily 1 group I member 2 (Homo sapiens) (UniProt O75469)
qualitativeLabel: FALSE
--
compound: Nc1ccc(O)c(N)c1
systemUnderTest: Nuclear receptor subfamily 1 group I member 2 (Homo sapiens) (UniProt O75469)
qualitativeLabel: FALSE
--
compound: NC(N)=NC(N)=NCCc1ccccc1
systemUnderTest: Nuclear receptor subfamily 1 group I member 2 (Homo sapiens) (UniProt O75469)
qualitativeLabel: FALSE

Query: Fill in: this test's call for `CCCCCCCCCCCCS` is ___
Result: FALSE

Query: Test call for this compound, please: `CCCCCCCCCCCCN1CCOCC1`
Result: FALSE

Query: How did this test come out for `CCOC(=O)CC(C)C` ?
Result: FALSE

###

testDescription: ATG_ISRE_CIS: Attagene CIS-FACTORIAL HepG2 Assay for human Interferon Regulatory Factor 1 (IRF1) binding to an Interferon-Stimulated Response Element (ISRE) (AID 2282948)
experimentalParameters: HepG2 ISRE cis-reporter (Attagene), mRNA transcription readout; actives raise or lower the signal
Active and inactive are the calls of the source. How the source made its calls: active means hit-call score of the fitted dose curve at least 0.9, where 1 is the maximum; inactive means score below 0.9.
The reply should name one outcome from true (1) (active), false (0) (inactive)

Would you please look over these solved cases?
compound: C[N+](C)(C)CCO
qualitativeLabel: false (0)

compound: CC(C)C(=O)c1ccccc1
qualitativeLabel: false (0)

Query: Call for entry `CCCOC(=O)CC` :
Result: false (0)

Query: Answer briefly: the call reported for `CC(=O)OC/C=C(C)/C=C/C=C(C)/C=C/C1=C(C)CCCC1(C)C` in this assay.
Result: true (1)

Query: // outcome(item) with item = `CCCCN(CCCC)CCCCCCN(CCCC)CCCC`
Result: false (0)

Query: Hi team, can someone confirm the assay call for `C=C(C)C(=O)OCCOCCOC(=O)C(=C)C` ?
Result: false (0)

Query: Just curious, what result did `CC1=CCC(=C(C)C)CC1` get here?
Result: false (0)

Query: Outcome logged for CC(C)Cc1ccc(C(C)C(=O)O)cc1 (stereo unspecified) in this assay:
Result: false (0)

Query: Just curious, what result did `O=C(O)c1cc2ccccc2cc1O` get here?
Result: false (0)

Query: // outcome(item) with item = `CCC(C)(C)c1cc(O)c(C(C)(C)CC)cc1O`
Result: true (1)

Query: Entry `CCCCCCCCCCCCN1CCOCC1` : call = ?
Result: false (0)

###

Read-out: Interleukin-8 (IL8), CXCL8 (gene 3576)
testDescription: BSK_SAg_IL8: BioMAP Diversity Plus: SAg Assay for Interleukin-8 (IL8) Biomarker Activity (AID 2283094)
experimentalParameters: primary human HUVEC with PBMC; actives raise or lower the signal
Activity calls are given as the source filed them. Rule for the calls: active = hit-call score of the fitted dose curve at least 0.9, where 1 is the maximum; inactive = score below 0.9.
Can you answer with just one of these options? active, inactive

structure: CCOC(=O)CCCCCCCCC(=O)OCC
qualitativeLabel: inactive

structure: C=C1CC/C=C(\C)CC[C@@H]2[C@@H]1CC2(C)C
qualitativeLabel: active

Query: Returns: the outcome recorded for `CCCCOCCOCCO` in this assay.
Result: inactive

Query: Assay outcome for `c1ccc(Sc2ccccc2)cc1` : what was it?
Result: active

Query: How was `c1ccc(OCCOc2ccccc2)cc1` classified in this test?
Result: inactive

Query: What call does the record list for `O=C(O)C(F)(F)C(F)(F)C(F)(F)C(F)(F)C(F)(F)C(F)(F)C(F)(F)C(F)F` ?
Result: inactive

Query: Kindly provide the recorded test outcome for the following compound: `O=C(O)C(F)(F)OC(F)(F)C(F)(F)OC(F)(F)C(F)(F)C(F)(F)C(F)(F)F`
Result: inactive

Query: Name the outcome recorded for `CCC(=O)OCC=Cc1ccccc1` in the assay.
Result: inactive

###

testDescription: ATG_NRF2_ARE_CIS: Attagene CIS-FACTORIAL HepG2 Assay for human Nuclear Factor Erythroid 2 Related Factor 2 (NFR2) response to Antioxidant Response Elements (ARE) (AID 2282992)
experimentalParameters: HepG2 Attagene ARE/NRF2 reporter, transcription factor activity; actives raise or lower the signal
The source made the active and inactive calls. The calls were made as follows: active = hit-call score of the fitted dose curve at least 0.9, where 1 is the maximum; inactive = score below 0.9.
Outcome field: choose from true (1) for active, false (0) for inactive

Example results:
structure: CCCO
qualitativeLabel: false (0)

structure: CCOC(=O)CCCCCCCCC(=O)OCC
qualitativeLabel: false (0)

structure: CC1=CCC(=C(C)C)CC1
qualitativeLabel: true (1)

structure: CC(=O)CC(C)(C)C1CCCCC1
qualitativeLabel: false (0)

--- query ---
Query: Just curious, what result did `CC(C)C(=O)OCC=Cc1ccccc1` get here?
Result: true (1)

###

testDescription: ACEA_AR_agonist_AUC_viability: ACEA Biosciences xCELLigence Real-Time Cell Analysis on Androgen Receptor Agonism for Viability (AID 2283775)
Records with an inconclusive call do not appear. Active and inactive are the calls of the source. How the source made its calls: active means hit-call score of the fitted dose curve at least 0.9, where 1 is the maximum; inconclusive means response in the unintended direction; inactive means score below 0.9.
The reply should name one outcome from active, inactive

molecule: CCCCCCCCCO
qualitativeLabel: inactive

Query: Hi, sorry to bother you, what did the test record for `O=Cc1ccccc1O` ?
Result: inactive

Query: Would you mind telling me which call this test gave `CCCC[N+](C)(CCCC)CCCC` ?
Result: inactive

Query: For `C=CCCCCCCCCC(=O)OCC` , which call appears in the assay record?
Result: inactive

Query: Hey, what did the test say about `CNC(=C[N+](=O)[O-])NCCSCc1ccc(CN(C)C)o1` ?
Result: inactive

Query: For `CC(C)(C)c1cccc(O)c1` , what call appears in the results of this test?
Result: inactive

Query: Status in this test for CCC(C)COC(=O)CC(C)C (centres undefined) ?
Result: inactive

Query: What classification did `CN1CCc2cccc3c2[C@H]1Cc1ccc(O)c(O)c1-3` end up with in this test?
Result: active

Query: Per the records of this test, what outcome belongs to CCCCCC1CCC(=O)O1 (centres undefined) ?
Result: inactive

###

Read-out: TIMP metallopeptidase inhibitor 1 (TIMP1), TIMP1 (gene 7076)
testDescription: BSK_hDFCGF_TIMP1: BioMAP Diversity Plus: hDFCGF Assay for TIMP metallopeptidase inhibitor 1 (TIMP1) Biomarker Activity (AID 2283062)
experimentalParameters: primary human foreskin fibroblasts; actives raise or lower the signal
The source made the active and inactive calls. How the source made its calls: active means hit-call score of the fitted dose curve at least 0.9, where 1 is the maximum; inactive means score below 0.9.
Can you answer with just one of these options? active, inactive

Below, 8 compounds whose answers are already recorded.
compound: CC(C)(CO)CO
qualitativeLabel: inactive
--
compound: CC(C)(C)c1cccc(O)c1
qualitativeLabel: inactive
--
compound: CCOC(=O)CCCCCCCCC(=O)OCC
qualitativeLabel: inactive
--
compound: CCn1cc(C(=O)O)c(=O)c2ccc(C)nc21
qualitativeLabel: inactive
--
compound: O=C1OC2(c3ccc(O)cc3Oc3cc(O)ccc32)c2ccccc21
qualitativeLabel: inactive
--
compound: CC(=O)CCC=C(C)CCC=C(C)C
qualitativeLabel: inactive
--
compound: C=C1CC/C=C(\C)CC[C@@H]2[C@@H]1CC2(C)C
qualitativeLabel: active
--
compound: Nc1ccc(N)c([N+](=O)[O-])c1
qualitativeLabel: inactive

Query: Look up the recorded call for `C[C@]12CC[C@@H]3c4ccc(O)cc4CC[C@H]3[C@@H]1CC[C@@H]2O` in this test.
Result: inactive

Query: recorded result category for CC1=CC(C)C(C=O)C(C)C1 (stereo not drawn) (tested in a mixture with another compound) in this test
Result: inactive

Query: Entry CCCCCCCC1CCCC1=O (stereo not drawn) : call = ?
Result: inactive

Query: Name the outcome recorded for `O=S1(=O)CC(Cl)(Cl)C(Cl)(Cl)C1` in the assay.
Result: active

Query: Recorded test outcome, item `CC=CC(=O)C1=C(C)C=CCC1(C)C`
Result: inactive
